Reference source: ChEMBL document CHEMBL1933033

Test system: SK-MEL-28
Experimental protocol: Cytotoxicity against human SK-MEL-28 cells after 72 hrs by MTS assay
Type: functional, cell-based
Condition notes: SK-MEL-28, 72 h
pIC50: −log10 of the molar value.
Experimental readout: pIC50

Sample answers from the record:
# input compound: CC1=C(CO)C(=O)O[C@@H]([C@@H](C)[C@H]2CC[C@H]3[C@@H]4CC=C5C[C@@H](O[C@@H]6O[C@H](CO)[C@@H](O)[C@H](O)[C@H]6O)CC(=O)[C@]5(CO)[C@H]4CC[C@]23C)C1 [WITHALONGOLIDE I] ; wanted: its pIC50
< 5.00

# input compound: CC1=C(CO[C@@H]2O[C@H](CO)[C@@H](O)[C@H](O)[C@H]2O)C[C@H]([C@@H](C)[C@H]2CC[C@H]3[C@@H]4CCC5=C(C(=O)C[C@H](O)C5)[C@H]4CC[C@]23C)OC1=O [WITHALONGOLIDE M] ; wanted: its pIC50
< 5.00

# input compound: CC1=C(CO[C@@H]2O[C@H](CO)[C@@H](O)[C@H](O)[C@H]2O)C[C@H]([C@@H](C)[C@H]2CC[C@H]3[C@@H]4C[C@H](O)C5=C(C(=O)C[C@H](O)C5)[C@H]4CC[C@]23C)OC1=O [WITHALONGOLIDE L] ; wanted: its pIC50
< 5.00

# input compound: CC1=C(CO[C@@H]2O[C@H](CO)[C@@H](O)[C@H](O)[C@H]2O)C[C@H]([C@@H](C)[C@H]2CC[C@H]3[C@@H]4CC(=O)C5=C(CC[C@@H](O)C5)[C@H]4CC[C@]23C)OC1=O [WITHALONGOLIDE N] ; wanted: its pIC50
< 5.00

# input compound: CC1=C(CO)C(=O)O[C@@H]([C@@H](C)[C@H]2CC[C@H]3[C@@H]4C[C@H]5O[C@]56[C@@H](O)C=CC(=O)[C@]6(CO)[C@H]4[C@@H](O)C[C@]23C)C1 ; wanted: its pIC50
5.52

# input compound: CC(=O)OC[C@]12C(=O)C=C[C@H](OC(C)=O)[C@]13O[C@@H]3C[C@H]1[C@@H]3CC[C@H]([C@H](C)[C@H]4CC(C)=C(C)C(=O)O4)[C@@]3(C)CC[C@@H]12 ; wanted: its pIC50
6.57

# input compound: CC1=C(CO)C(=O)O[C@@H]([C@@H](C)[C@H]2CC[C@H]3[C@@H]4C[C@@H]5O[C@@H]6CC(=O)[C@](C)([C@H]4CC[C@]23C)[C@@]5(O)[C@H]6O)C1 ; wanted: its pIC50
< 5.00

---
# input compound: CC1=C(C)C(=O)O[C@@H]([C@@H](C)[C@H]2CC[C@H]3[C@@H]4C[C@H]5O[C@]56[C@@H](O)C=CC(=O)[C@]6(CO)[C@H]4CC[C@]23C)C1 [WITHALONGOLIDE B] ; wanted: its pIC50
5.41

* * *

Experimental protocol: Cytotoxicity against human MDA1986 cells after 72 hrs by MTS assay
Format: functional, cell-based
Condition notes: MDA1986, 72 h
Each entry below carries its reported IC50.
Answer format: numeric, µM implied, no suffix.

# input compound: CC(=O)OC[C@]12C(=O)C=C[C@H](O)[C@]13O[C@@H]3C[C@H]1[C@@H]3CC[C@H]([C@H](C)[C@H]4CC(C)=C(C)C(=O)O4)[C@@]3(C)CC[C@@H]12 ; wanted: its IC50
0.49

---
# input compound: CO[C@H]1CC(=O)[C@]2(C)[C@@H]3[C@@H](C[C@H]4O[C@]42[C@H]1O)[C@@H]1CC[C@H]([C@H](C)[C@H]2CC(C)=C(CO)C(=O)O2)[C@@]1(C)C[C@@H]3O [WITHALONGOLIDE E] ; wanted: its IC50
8.3

# input compound: CC(=O)OC[C@]12C(=O)C=C[C@H](OC(C)=O)[C@]13O[C@@H]3C[C@H]1[C@@H]3CC[C@H]([C@H](C)[C@H]4CC(C)=C(C)C(=O)O4)[C@@]3(C)CC[C@@H]12 ; wanted: its IC50
0.11

# input compound: CC1=C(CO)C(=O)O[C@@H]([C@@H](C)[C@H]2CC[C@H]3[C@@H]4C[C@H]5O[C@]56[C@@H](O)[C@@H](OS(=O)(=O)O)CC(=O)[C@]6(C)[C@H]4CC[C@]23C)C1 ; wanted: its IC50
0.27

# input compound: CC1=C(CO)C(=O)O[C@@H]([C@@H](C)[C@H]2CC[C@H]3[C@@H]4C[C@H]5O[C@]56[C@@H](O)C=CC(=O)[C@]6(CO)[C@H]4[C@@H](O)C[C@]23C)C1 ; wanted: its IC50
2.6

# input compound: CC1=C(CO)C(=O)O[C@@H]([C@@H](C)[C@H]2CC[C@H]3[C@@H]4C[C@H]5O[C@]56[C@@H](O)[C@@H](OS(=O)(=O)O)CC(=O)[C@]6(CO)[C@H]4CC[C@]23C)C1 [WITHALONGOLIDE G] ; wanted: its IC50
2

* * *

System: SK-MEL-28
Experimental protocol: Cytotoxicity against human SK-MEL-28 cells after 72 hrs by MTS assay
Assay type: functional, cell-based
Condition notes: SK-MEL-28, 72 h
Experimental readout: IC50 (µM)
Answer format: numeric, µM implied, no suffix.

# input compound: CC(=O)OCC1=C(C)C[C@H]([C@@H](C)[C@H]2CC[C@H]3[C@@H]4C[C@H]5O[C@]56[C@@H](OC(C)=O)C=CC(=O)[C@]6(COC(C)=O)[C@H]4CC[C@]23C)OC1=O ; wanted: its IC50
0.54

---
# input compound: CC1=C(CO)C(=O)O[C@@H]([C@@H](C)[C@H]2CC[C@H]3[C@@H]4C[C@H]5O[C@]56[C@@H](O)C=CC(=O)[C@]6(C)[C@H]4CC[C@]23C)C1 ; wanted: its IC50
4

* * *

Each entry below carries its reported pIC50.
Test system: SK-MEL-28
Experimental protocol: Cytotoxicity against human SK-MEL-28 cells after 72 hrs by MTS assay
Type: functional, cell-based
Condition notes: SK-MEL-28, 72 h
# pIC50 is unitless: minus log10 of the molar concentration; print number only

// map CC(=O)OC[C@]12C(=O)C=C[C@H](O)[C@]13O[C@@H]3C[C@H]1[C@@H]3CC[C@H]([C@H](C)[C@H]4CC(C)=C(C)C(=O)O4)[C@@]3(C)CC[C@@H]12 to recorded pIC50 (system: SK-MEL-28)
6.19

Consider the additional molecule presented here.
// map CO[C@H]1CC(=O)[C@]2(CO)[C@H]3CC[C@]4(C)[C@@H]([C@H](C)[C@H]5CC(C)=C(CO)C(=O)O5)CC[C@H]4[C@@H]3C[C@H]3O[C@]32[C@H]1O [WITHALONGOLIDE D] to recorded pIC50 (system: SK-MEL-28)
5.03

* * *

Experimental protocol: Cytotoxicity against human MDA1986 cells after 72 hrs by MTS assay
Assay type: functional, cell-based
Condition notes: MDA1986, 72 h
pIC50: −log10 of the molar value.
Each entry below carries its reported pIC50.

# input compound: CC(=O)OCC1=C(C)C[C@H]([C@@H](C)[C@H]2CC[C@H]3[C@@H]4C[C@H]5O[C@]56[C@@H](OC(C)=O)C=CC(=O)[C@]6(COC(C)=O)[C@H]4CC[C@]23C)OC1=O ; wanted: its pIC50
6.04

# input compound: CC1=C(CO)C(=O)O[C@@H]([C@@H](C)[C@H]2CC[C@H]3[C@@H]4C[C@H]5O[C@]56[C@@H](O)[C@@H](O)CC(=O)[C@]6(C)[C@H]4CC[C@]23C)C1 ; wanted: its pIC50
< 5.00

# input compound: CC1=C(CO[C@@H]2O[C@H](CO)[C@@H](O)[C@H](O)[C@H]2O)C[C@H]([C@@H](C)[C@H]2CC[C@H]3[C@@H]4C[C@H](O)c5cccc(O)c5[C@H]4CC[C@]23C)OC1=O ; wanted: its pIC50
< 5.00

Consider the additional compound presented here.
# input compound: CC1=C(CO[C@@H]2O[C@H](CO)[C@@H](O)[C@H](O)[C@H]2O)C[C@H]([C@@H](C)[C@H]2CC[C@H]3[C@@H]4CCC5=C(C(=O)C[C@H](O)C5)[C@H]4CC[C@]23C)OC1=O [WITHALONGOLIDE M] ; wanted: its pIC50
< 5.00

* * *

Experimental protocol: Cytotoxicity against human MDA1986 cells after 72 hrs by MTS assay
Assay type: functional, cell-based
Condition notes: MDA1986, 72 h
pIC50: −log10 of the molar value.
Experimental readout: pIC50

# input compound: CC1=C(CO)C(=O)O[C@@H]([C@@H](C)[C@H]2CC[C@H]3[C@@H]4C[C@H]5O[C@]56[C@@H](O)CCC(=O)[C@]6(C)[C@H]4CC[C@]23C)C1 ; wanted: its pIC50
< 5.00

# input compound: CC1=C(CO)C(=O)O[C@@H]([C@@H](C)[C@H]2CC[C@H]3[C@@H]4CC=C5C[C@@H](O[C@@H]6O[C@H](CO)[C@@H](O)[C@H](O)[C@H]6O)CC(=O)[C@]5(CO)[C@H]4CC[C@]23C)C1 [WITHALONGOLIDE I] ; wanted: its pIC50
< 5.00

# input compound: CC1=C(CO)C(=O)O[C@@H]([C@@H](C)[C@H]2CC[C@H]3[C@@H]4C[C@@H]5O[C@@H]6CC(=O)[C@](C)([C@H]4CC[C@]23C)[C@@]5(O)[C@H]6O)C1 ; wanted: its pIC50
< 5.00
